# System name: Dopamine receptor D4 (Canis lupus familiaris, UniProt Q589Y6)
# Sequence (Q589Y6 whole entry): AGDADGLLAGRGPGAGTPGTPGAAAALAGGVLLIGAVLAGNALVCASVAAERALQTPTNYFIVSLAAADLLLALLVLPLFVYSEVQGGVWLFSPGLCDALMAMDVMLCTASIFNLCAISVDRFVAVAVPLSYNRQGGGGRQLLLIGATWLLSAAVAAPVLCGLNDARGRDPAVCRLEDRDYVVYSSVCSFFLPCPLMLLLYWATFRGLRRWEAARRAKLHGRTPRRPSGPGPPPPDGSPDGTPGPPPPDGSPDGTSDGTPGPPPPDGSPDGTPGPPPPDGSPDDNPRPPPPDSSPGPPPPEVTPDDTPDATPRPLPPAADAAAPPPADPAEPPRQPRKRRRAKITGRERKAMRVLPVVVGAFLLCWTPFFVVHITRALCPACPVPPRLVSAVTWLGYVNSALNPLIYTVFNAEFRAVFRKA
Attribute measured: Ki (µM)
Entry rule: numbers only, all in µM.

q: Returns the measured Ki for the input compound. Input: "CN1CCN(C2=c3ccccc3=Nc3ccc(Cl)cc3N2)CC1"
a: 0.009

q: Input NCCc1c[nH]c2ccc(O)cc12 [[3H]-5-HT]
a: 4.18

---

# System name: D(4) dopamine receptor (Rattus norvegicus, UniProt P30729)
# Sequence (P30729 whole entry): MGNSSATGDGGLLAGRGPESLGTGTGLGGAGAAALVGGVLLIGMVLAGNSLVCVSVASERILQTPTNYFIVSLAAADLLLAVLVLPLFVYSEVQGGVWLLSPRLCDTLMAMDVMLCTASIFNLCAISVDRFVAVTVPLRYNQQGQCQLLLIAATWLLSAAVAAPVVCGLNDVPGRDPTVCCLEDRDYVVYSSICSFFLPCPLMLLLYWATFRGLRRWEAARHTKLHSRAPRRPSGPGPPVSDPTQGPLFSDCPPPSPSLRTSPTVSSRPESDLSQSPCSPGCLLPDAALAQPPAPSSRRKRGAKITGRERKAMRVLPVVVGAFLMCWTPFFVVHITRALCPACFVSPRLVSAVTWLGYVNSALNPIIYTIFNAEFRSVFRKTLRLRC
Attribute measured: pKi
pKi is a log-scale quantity: -log10 of the concentration expressed in molar.

q: Returns the measured pKi for the input molecule. Input: "CC(C)C[C@H]1C(=O)N2CCC[C@H]2[C@]2(O)O[C@](NC(=O)[C@@H]3C=C4c5cccc6[nH]c(Br)c(c56)C[C@H]4N(C)C3)(C(C)C)C(=O)N12"
a: 6.47

q: Input "Nc1nc2c(ncn2[C@@H]2O[C@H](COP(=O)(O)OP(=O)(O)OP(=O)(O)O)[C@@H](O)[C@H]2O)c(=O)[nH]1"
a: 6.35

q: Input "O=c1[nH]c2ccccc2n1C1CCN(CCCC(c2ccc(F)cc2)c2ccc(F)cc2)CC1"
a: 7.37
